Quick reference for growth among some compounds
test system: CCRF-CEM leukemia; experiment: NCI-60 one-dose screen, 48 h (100 = growth as untreated, 0 = no growth, -100 = all killed); details: 10 µM unless noted
About 83,000 compounds went through this panel and 20% of them were active in at least one assay; those are over-represented in the sample as a whole.

compound	assay target	growth (%)
CN(C)C[C@@H]1CCn2cc(c3ccccc32)C2=C(C(=O)NC2=O)c2cn(c3ccccc23)CCO1	CCRF-CEM leukemia	-0.337
CN(C)CCn1c(=O)c2c3cc4c(cc3n(CCN(C)C)c2c2ccc(Cl)cc21)OCO4	CCRF-CEM leukemia	14.4
O=C(Cn1ccnc1)Nc1ccc(-c2nc3ccccc3s2)cc1	CCRF-CEM leukemia	69.1
CNC(=O)c1cccc2cc(Oc3ccnc4cc(OCC5(N)CC5)c(OC)cc34)ccc12	CCRF-CEM leukemia	44.4
NC1=Nc2cc(OCCCN3Cc4ccccc4C3)c(OCC3CC3)cc2C12CCCC2	CCRF-CEM leukemia	37
Cc1ccc(-[n+]2c3cc(N)c(C)cc3nc3cc(C)c(Nc4ccccc4)cc32)cc1	CCRF-CEM leukemia	1.93
CC1(O)CC(c2nc(-c3ccc4ccc(-c5ccccc5)nc4c3)c3c(N)nccn23)C1 (centres undefined)	CCRF-CEM leukemia	27.1
Cc1ccsc1C(NC(=O)c1ccccc1)c1cc(Cl)c2cccnc2c1O (centres undefined)	CCRF-CEM leukemia	9.96
C=CC(=O)N(C)[C@H]1C[C@H]2OC(C)(C1OC)n1c3ccccc3c3c4c(c5c6ccccc6n2c5c31)C(=O)NC4 (some centres undefined)	CCRF-CEM leukemia	-7.8

###

tested on: MDA-MB-231 breast; assay: NCI-60 one-dose screen, 48 h; conditions: 10 µM unless noted
About 83,000 compounds went through this panel and 20% of them were active in at least one assay; those are over-represented in the sample as a whole. The source made the active and inactive calls. How the source made its calls: active means growth percent below 10; inactive means the rest.
Possible outcomes: yes (1) (active), no (0) (inactive)

compound	category
CC(=O)C(C(C)=O)C(c1ccccc1)C(C(C)=O)C(C)=O	no (0)
CCCCCc1ccc(C)cc1OC(=O)CCl	no (0)
COc1ccc(S(=O)(=O)N(C(C)=O)c2ccccc2/C=C/c2cc[n+]([O-])cc2)cc1	no (0)
Nc1c(C(=O)c2ccccc2)sc2nc(-c3cccs3)ccc12	no (0)
O=C1CSC(c2c(F)cccc2Cl)N1NC(=O)C(O)(c1ccccc1)c1ccccc1 (centres undefined)	no (0)
COC(=O)N[C@@H](C)CNc1nccc(-c2cn(C(C)C)nc2-c2cc(Cl)cc(NS(C)(=O)=O)c2F)n1	no (0)
O=C(Nc1ccc(-c2ccnc(Nc3ccc(N4CCOCC4)cc3)n2)cc1)[C@@H]1CCCN1	no (0)
CC(=O)O[C@]1(C)C[C@H](O)[C@]2(O)C=CO[C@H](O[C@@H]3O[C@H](CO)[C@@H](O)[C@H](O)[C@H]3O)[C@@H]21	no (0)
C[C@]12O[C@H](C[C@]1(O)CO)n1c3ccccc3c3c4c(c5c6ccccc6n2c5c31)CNC4=O	yes (1)
C=CC(=O)Nc1cc(Nc2nccc(-c3cn(C)c4ccccc34)n2)c(OC)cc1N(C)CCN(C)C	yes (1)
Cc1cc(Oc2ccccc2)ccc1Nc1ncnc2ccc(-c3cnc(Cl)c(NS(C)(=O)=O)c3)cc12	no (0)
N#Cc1c(NC(=O)c2cccs2)[n+]([O-])c2ccc(F)cc2[n+]1[O-]	no (0)
N#Cc1c(-c2ccc(Cl)cc2)csc1NC(=O)Nc1cccc(C(F)(F)F)c1	yes (1)
Cc1ccc(NC(=O)c2ccc(CN3CCN(C)CC3)cc2)cc1Nc1nc(-c2cccnc2)cs1	no (0)
CC1(O)CCC(Nc2cc(-c3ccc(C(F)(F)F)cc3)c(C#N)c3nc4ccccc4n23)CC1 (centres undefined)	no (0)
O=C1C=CC2(NN=C(c3ccccc3)N2c2cccc(Cl)c2)C(Cl)=C1 (centres undefined)	no (0)
Cc1cc(-c2cc(OC(=O)c3ccccc3)ccc2Cl)cc2nnc(Nc3ccc(OCCN4CCCC4)cc3)nc12	no (0)
COC[C@@H](C)n1c(C2CCOCC2)nc2c1C1C=C(OC)C(c3c(C)noc3C)=CC1N=C2 (some centres undefined)	no (0)
CNC(=O)c1cnc(C)nc1-c1cc(C(C)(C)C)c(O)c(C(C)(C)C)c1	no (0)

###

system: UACC-62 melanoma; assay: NCI-60 one-dose screen, 48 h (100 = growth as untreated, 0 = no growth, -100 = all killed); conditions: 10 µM unless noted
Compounds without any hit were thinned out: in the full panel of roughly 83,000, 20% have a hit.

structure	growth, %
CC(C)OP(=O)(CCC(=O)c1c[nH]c2ccccc12)OC(C)C	97
CC(C)n1c(NCCc2ccc(O)c(O)c2)nc2c1c(=O)n(C)c(=O)n2C	94.4
COc1cnc2c(c1)C(=O)c1c-2n(CCCNC2=NCCS2)c(=O)c2cc(Cl)ccc12	-76.6
CSc1nc2ncncc2[nH]1	104
C[C@@H](C[C@H](CCO)c1cc(C(F)(F)F)cc(C(F)(F)F)c1)c1ccc2ccccc2c1	90.4

###

system: SF-268 CNS; experiment: NCI-60 one-dose screen, 48 h (100 = growth as untreated, 0 = no growth, -100 = all killed); conditions: 10 µM unless noted
The panel holds about 83,000 compounds, 20% with a hit somewhere; the sample as a whole holds those more often.
experimental readout: growth (%)

structure	experimental readout	value unit	assay value
CCn1c(-c2nonc2N)nc2c(C#CC(C)(C)O)ncc(OC[C@H]3CCCNC3)c21	growth	%	81
CC/C(=C(\c1ccc(OCCN2CCCCCCC2)cc1)c1ccc(OC(=O)C2CCCCC2)cc1)c1ccc(Cl)cc1	growth	%	94.7
CS(=O)(=O)N1CCc2c(-c3cnc(N)nc3)nc(N3CCOCC3)nc21	growth	%	14.7
Cc1ccc(N)cc1CN1C(=O)c2ccccc2C1=O	growth	%	121
COc1cc2cc(NCc3ccc(F)cc3)nc(C)c2cc1OC	growth	%	50.7
C=CCN(/C=C1/C(=O)O[C@H](COC)[C@@]2(C)C1=C(O)C(=O)C1=C2[C@H](OC(C)=O)C[C@]2(C)C(=O)CC[C@@H]12)CC=C	growth	%	29.9
Cc1cnc(NC(=O)Nc2cc(Br)c(C)cc2OC[C@@H]2CNCCO2)cn1	growth	%	33.6
CSc1nc2ncncc2[nH]1	growth	%	105
Cc1ccc(NC(=O)c2ccc(CN3CC[C@H](N(C)C)C3)c(C(F)(F)F)c2)cc1Nc1nccc(-c2cncnc2)n1	growth	%	17.1

###

Tested on: DU-145 prostate
Assay: NCI-60 one-dose screen, 48 h (100 = growth as untreated, 0 = no growth, -100 = all killed)
Conditions: 10 µM unless noted
Procedure: Cells are grown in 96 well plates and exposed to the test compound for 48 hours. Compounds are tested at a single concentration, which is 10^-5 M for most compounds. The reported endpoint is percent growth (GI% or GIPRCNT), where numbers from 0 - 100% represent growth inhibition, and numbers from -100% - 0 represent cell death. For example, a value of 40 represents 60% growth inhibition. A value of 0 means no net growth occurred over the course of the experiment. […]
Compounds without any hit were thinned out: in the full panel of roughly 83,000, 20% have a hit.
experimental readout: growth (%)

compound	experimental readout	assay value
Cn1cnc(-c2cc3nccc(Oc4ccc(NC(=S)NC(=O)Cc5ccccc5)cc4F)c3s2)c1	growth	104
O=C1CCC(=O)CC1	growth	110
C[N+](C)(CCOC(c1ccccc1)c1ccccc1)CC(=O)OCc1ccccc1	growth	105
COc1cc2ncnc3c2cc1OCCCCCN(C)Cc1ccc(Br)cc1N3	growth	31.1
Cc1ccc(-n2nc(C(C)(C)C)cc2NC(=O)NCc2cc(F)ccc2Oc2ccc3c(cnn3CCO)c2)cc1	growth	42.4
COc1cc(Nc2ncc(F)c(Nc3ccc4c(n3)N(COP(=O)(O)O)C(=O)C(C)(C)O4)n2)cc(OC)c1OC	growth	30.9
Cc1cc2c(-c3nc4ccccn4c3N)c(O)c(O)cc2c(O)c1-c1c(C)cc2c(-c3nc4ccccn4c3N)c(O)c(O)cc2c1O	growth	26
COc1ccc(Nc2ncccc2NC(=O)c2cn(Cc3cccc(Oc4ccccc4)c3)nn2)cc1	growth	93.4
CCc1cc2c(c3ccc(C(=O)CBr)cc13)CCCC2	growth	107
N#CC1(C#N)C(c2cccs2)NC(c2cccs2)C1(C#N)C#N (stereo not given)	growth	102

###

Quick reference for growth among some compounds
tested on: SR leukemia; assay: NCI-60 one-dose screen, 48 h (100 = growth as untreated, 0 = no growth, -100 = all killed); details: 10 µM unless noted
Compounds without any hit were thinned out: in the full panel of roughly 83,000, 20% have a hit.

structure	growth, %
C1=C\COCc2cc(ccc2OCCN2CCCC2)Nc2nccc(n2)-c2cccc(c2)COC/1	-8.75
COc1ccc(-c2ccc3c(N4CCOC[C@@H]4C)nc(N4CCOC[C@@H]4C)nc3n2)cc1CO	9
CNC(=O)c1ccccc1Nc1nc(Nc2ccc3c(c2OC)CCC[C@H](N2CCN(CCO)CC2)C3)ncc1Cl	-5.84
COc1ccc(Cc2cc(-c3ccccc3C)n[nH]c2=O)cc1	103
C[C@H]1Oc2cc(cnc2N)-c2c(nn(C)c2C#N)CN(C)C(=O)c2ccc(F)cc21	6.17
CNC(=O)c1cc(Oc2ccc(NC(=O)Nc3ccc(Cl)c(C(F)(F)F)c3)c(F)c2)ccn1	-32.6
Nc1cc(C(F)(F)F)c(-c2cc(N3CCOCC3)nc(N3CCOCC3)n2)cn1	-6.66
Cc1[nH]n(C(N)=S)c(=O)c1N=Nc1ccc(S(=O)(=O)Nc2ccncn2)cc1	111
Cc1c(CN2CCN(C(=O)[C@H](C)O)CC2)sc2c(N3CCOCC3)nc(-c3cnc(N)nc3)nc12	-3.28
